- test-protocol: in vivo
- settings: female, Wistar, rat, in vivo, iv, total radioactivity, uptake in kidneys
Where a SMILES comes first, the peptide text is derived from it. Bridges are numbered along the chain shown (N, C = ends). [ ]: non-standard residue; d: D form. The star is where a group is joined. X1 = O=C(O)CN1CCN(CC(=O)O)CCN(Cc2ccc(CC(=O)*)cc2)CC1; Mpa = O=C(O)CCS
measurement-kind: tissue uptake at 10 min

tissue uptake at 10 min recorded for this compound, CC[C@H](C)[C@@H]1NC(=O)[C@H](Cc2ccc(O)cc2)NC(=O)CCSSC[C@@H](C(=O)N2CCC[C@H]2C(=O)N[C@@H](CCCCNC(=O)Cc2ccc(CN3CCN(CC(=O)O)CCN(CC(=O)O)CC3)cc2)C(=O)NCC(N)=O)NC(=O)[C@H](CC(N)=O)NC(=O)[C@H](CCC(N)=O)NC1=O [[^18F]AlF-NODA-dLVT] ([Mpa]YIQNCPK(X1)G-NH2; disulfide 1-6) , is 4.6 %ID/g

###

- test-protocol: in vivo
- settings: female, Wistar, rat, in vivo, iv, total radioactivity, uptake in olfactory bulb
Where a SMILES comes first, the peptide text is derived from it. Bridges are numbered along the chain shown (N, C = ends). [ ]: non-standard residue; d: D form. The star is where a group is joined. X1 = O=C(O)CN1CCN(CC(=O)O)CCN(Cc2ccc(CC(=O)*)cc2)CC1; Mpa = O=C(O)CCS
measurement-kind: tissue uptake at 10 min (%ID/g)
The reply should contain only the number, in %ID/g.

tissue uptake at 10 min reading for CC[C@H](C)[C@@H]1NC(=O)[C@H](Cc2ccc(O)cc2)NC(=O)CCSSC[C@@H](C(=O)N2CCC[C@H]2C(=O)N[C@@H](CCCCNC(=O)Cc2ccc(CN3CCN(CC(=O)O)CCN(CC(=O)O)CC3)cc2)C(=O)NCC(N)=O)NC(=O)[C@H](CC(N)=O)NC(=O)[C@H](CCC(N)=O)NC1=O [[^18F]AlF-NODA-dLVT] ([Mpa]YIQNCPK(X1)G-NH2; disulfide 1-6) : 0.05

###

- test-protocol: physchem
- Assay type: physicochemical
- settings: pH 7.4
Where a SMILES comes first, the peptide text is derived from it. Bridges are numbered along the chain shown (N, C = ends). [ ]: non-standard residue; d: D form. The star is where a group is joined. X1 = O=C(O)CN1CCN(CC(=O)O)CCN(Cc2ccc(CC(=O)*)cc2)CC1; Mpa = O=C(O)CCS
measurement-kind: logD
Write no unit; give the number alone.

Summary for this compound, CC[C@H](C)[C@@H]1NC(=O)[C@H](Cc2ccc(O)cc2)NC(=O)CCSSC[C@@H](C(=O)N2CCC[C@H]2C(=O)N[C@@H](CCCCNC(=O)Cc2ccc(CN3CCN(CC(=O)O)CCN(CC(=O)O)CC3)cc2)C(=O)NCC(N)=O)NC(=O)[C@H](CC(N)=O)NC(=O)[C@H](CCC(N)=O)NC1=O [[^18F]AlF-NODA-dLVT] ([Mpa]YIQNCPK(X1)G-NH2; disulfide 1-6) : logD is -0.54

###

- test-protocol: in vivo
- settings: female, Wistar, rat, in vivo, inhaled or intranasal, total radioactivity, uptake in cerebellum
Where a SMILES comes first, the peptide text is derived from it. Bridges are numbered along the chain shown (N, C = ends). [ ]: non-standard residue; d: D form. The star is where a group is joined. X1 = O=C(O)CN1CCN(CC(=O)O)CCN(Cc2ccc(CC(=O)*)cc2)CC1; Mpa = O=C(O)CCS
measurement-kind: tissue uptake at 0.5 h (%ID/g)
Report the figure in %ID/g without appending any unit label.

Memo: CC[C@H](C)[C@@H]1NC(=O)[C@H](Cc2ccc(O)cc2)NC(=O)CCSSC[C@@H](C(=O)N2CCC[C@H]2C(=O)N[C@@H](CCCCNC(=O)Cc2ccc(CN3CCN(CC(=O)O)CCN(CC(=O)O)CC3)cc2)C(=O)NCC(N)=O)NC(=O)[C@H](CC(N)=O)NC(=O)[C@H](CCC(N)=O)NC1=O [[^18F]AlF-NODA-dLVT] ([Mpa]YIQNCPK(X1)G-NH2; disulfide 1-6) , reported tissue uptake at 0.5 h: 0.31
